biological target: human GcgR (Homo sapiens, UniProt P47871); assay: Functional cAMP activity in the presence of 1% HSA; type: cell-based; details: read-out: cAMP Rel EC50, hGcgR
Sequence (P47871 26-477): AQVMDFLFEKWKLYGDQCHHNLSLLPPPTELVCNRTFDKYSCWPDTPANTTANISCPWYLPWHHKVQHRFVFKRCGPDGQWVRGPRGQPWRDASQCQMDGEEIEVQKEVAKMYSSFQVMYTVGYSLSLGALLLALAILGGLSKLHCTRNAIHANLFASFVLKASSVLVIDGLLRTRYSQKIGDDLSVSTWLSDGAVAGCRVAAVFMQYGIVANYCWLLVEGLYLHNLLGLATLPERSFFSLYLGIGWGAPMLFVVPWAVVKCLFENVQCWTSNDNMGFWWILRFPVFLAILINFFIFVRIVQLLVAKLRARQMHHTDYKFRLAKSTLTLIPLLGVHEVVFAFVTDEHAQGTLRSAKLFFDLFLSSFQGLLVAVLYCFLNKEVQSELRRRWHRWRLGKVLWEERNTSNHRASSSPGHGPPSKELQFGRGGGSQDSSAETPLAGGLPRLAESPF
Starred links: 1 amine or outer side, 2 acyl side, 3 side chain; linkers in the order of their positions; H or OH if unused. Non-standard residues stand in square brackets, D forms with d. Groups on a side chain read outwards from the residue. *: point of attachment. C18 diacid = O=C(O)CCCCCCCCCCCCCCCCC(=O)*; αMePhe(2-F) = C[C@](N)(Cc1ccccc1F)C(=O)O; γGlu = O=C(O)[C@H](CCC(=O)[*:2])N[*:1]; αMe4Pal = C[C@](N)(Cc1ccncc1)C(=O)O; αMeY = C[C@](N)(Cc1ccc(O)cc1)C(=O)O; 4Pal = N[C@@H](Cc1ccncc1)C(=O)O; αMeL = CC(C)C[C@](C)(N)C(=O)O; Orn = NCCC[C@H](N)C(=O)O; AEEA = NCCOCCOCC(=O)O; Aib = CC(C)(N)C(=O)O
EC50 strictly under 600 nM means YES; at 600 nM or over means NO.

H-Y[Aib]Q[dA]T[αMePhe(2-F)]TSD[4Pal]SI[αMeL]LD[Orn]K([AEEA-γGlu-C18 diacid])AQ[αMe4Pal]EFI[dE][αMeY]LIEGGPSSGAPPPSGS-NH2 [Example 1206] ... YES

Q) # TODO verify EC50 < 600 nM strictly for this substance: H-Y[Aib]QGTFTSDFS[Orn][αMeL]LDKK([AEEA-γGlu-C18 diacid])AQ[αMe4Pal]AFIEYLIE[Aib]GESSGAPPPSGS-NH2 [Example 229]
A) YES

Q) # TODO verify EC50 < 600 nM strictly for this substance: H-Y[Aib]QGTFTSD[4Pal]S[Orn][αMeL]LDKK([γGlu-AEEA-γGlu-C18 diacid])AQ[αMe4Pal]AFIEYLIE[Aib]GPSSGAPPPSGS-NH2 [Example 868]
A) NO

Q) # TODO verify EC50 < 600 nM strictly for this substance: H-Y[Aib]QGTFTSD[4Pal]SQ[αMeL]LDKK([AEEA-γGlu-C18 diacid])AQ[αMe4Pal]QFIE[αMeY]LIEGGPSSGAPPPSGS-NH2 [Example 855]
A) NO

---

Biological target: hGIPR (Homo sapiens, UniProt P48546)
Sequence (P48546 22-466): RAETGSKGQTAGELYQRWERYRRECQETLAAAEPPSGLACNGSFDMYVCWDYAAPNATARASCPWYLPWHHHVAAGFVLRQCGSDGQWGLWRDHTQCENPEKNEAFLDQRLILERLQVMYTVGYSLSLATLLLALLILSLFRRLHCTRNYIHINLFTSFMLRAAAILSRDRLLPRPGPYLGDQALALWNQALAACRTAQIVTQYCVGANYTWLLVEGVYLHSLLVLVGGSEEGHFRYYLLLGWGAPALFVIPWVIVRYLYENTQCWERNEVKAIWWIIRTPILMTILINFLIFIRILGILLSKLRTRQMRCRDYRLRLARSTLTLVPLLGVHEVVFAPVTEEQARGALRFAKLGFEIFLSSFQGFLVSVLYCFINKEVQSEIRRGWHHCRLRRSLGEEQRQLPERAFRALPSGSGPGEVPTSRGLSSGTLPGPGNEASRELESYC
Assay: Functional cAMP activation in the presence of 0.1% casein (no HSA);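 note: intracellular cAMP rise after 30 min at 37 °C read by HTRF against a standard curve, scaled between buffer alone (0%) and top control ligand concentration (100%), four-parameter fit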
Type: cell-based
Conditions: read-out: Relative cAMP EC50, hGIPR
Starred links: 1 amine or outer side, 2 acyl side, 3 side chain; linkers in the order of their positions; H or OH if unused. Non-standard residues stand in square brackets, D forms with d. Groups on a side chain read outwards from the residue. No end group written: not given here. *: point of attachment. C18 diacid = O=C(O)CCCCCCCCCCCCCCCCC(=O)*; αMePhe(2-F) = C[C@](N)(Cc1ccccc1F)C(=O)O; γGlu = O=C(O)[C@H](CCC(=O)[*:2])N[*:1]; αMe4Pal = C[C@](N)(Cc1ccncc1)C(=O)O; αMeY = C[C@](N)(Cc1ccc(O)cc1)C(=O)O; 4Pal = N[C@@H](Cc1ccncc1)C(=O)O; αMeL = CC(C)C[C@](C)(N)C(=O)O; αMeS = C[C@](N)(CO)C(=O)O; Orn = NCCC[C@H](N)C(=O)O; AEEA = NCCOCCOCC(=O)O; Aib = CC(C)(N)C(=O)O
Kindly supply the reported log10 of EC50 values for the records listed here.
Scale: log10; quantity: EC50; unit before log: pM

Worked examples follow.
H-Y[Aib]Q[dA]T[αMePhe(2-F)]TSD[4Pal][αMeS]I[αMeL]LD[Orn]K([AEEA-γGlu-C18 diacid])AQ[αMe4Pal]EFI[dE][αMeY]LIEGGPSSGEPPPSGTGE-NH2 [Example 766] ... 1.51
H-Y[Aib]QGT[αMePhe(2-F)]TSD[4Pal][αMeS]I[αMeL]LD[Orn]K([AEEA-γGlu-C18 diacid])AQ[αMe4Pal]EFI[dE][αMeY]LVEGGPSSGEPPPSGSE-NH2 [Example 752] ... 0.84
Y[Aib]QGT[αMePhe(2-F)]TSD[4Pal][αMeS]I[αMeL]LD[Orn]K([Glu-γGlu-C18 diacid])AQ[Aib][Orn]FI[dE][αMeY]LSEGGPSSGEPPPSGTEE-NH2 [Example 564] ... 2.25
H-Y[Aib]QGT[αMePhe(2-F)]TSD[4Pal][αMeS]I[αMeL]LD[Orn]K([γGlu-γGlu-C18 diacid])AQ[Aib][Orn]FI[dE][αMeY]LQEGGPSSGEPPPSGTEE-NH2 [Example 572] ... 1.67

Q) log10 of EC50 lookup needed for H-Y[Aib]QGT[αMePhe(2-F)]TSD[4Pal][αMeS]I[αMeL]LD[Orn]K([AEEA-γGlu-C18 diacid])AA[Aib]EFI[dE][αMeY]LIEGGPSSGAPPPSGTGQ-OH [Example 724] , thanks.
A) 1.01
